# Assay Overview: mouse liver microsome metabolic stability
# Stated Conditions: mouse liver microsomes, (+) ABT; normalized to propranolol
Recorded Metric: T1/2 Ratio (+) ABT
Enter the number alone.

// T1/2 Ratio (+) ABT lookup, key: `Brc1ccc2nccc(Nc3ccc4cn[nH]c4c3)c2c1`
17.5

// next record `Fc1ccc2c(c1Nc1ccnc3ccc(Br)cc13)OCO2`
0.18

// next record `COc1cc2nccc(Nc3cc(OC)c(OC)c(OC)c3)c2cc1OC`
14.7

# iterate: `Brc1ccc2nccc(Nc3cccc4c3OCO4)c2c1`
0.13

====

# Experimental System: STK16 (Homo sapiens, UniProt O75716)
# Sequence (O75716 whole entry): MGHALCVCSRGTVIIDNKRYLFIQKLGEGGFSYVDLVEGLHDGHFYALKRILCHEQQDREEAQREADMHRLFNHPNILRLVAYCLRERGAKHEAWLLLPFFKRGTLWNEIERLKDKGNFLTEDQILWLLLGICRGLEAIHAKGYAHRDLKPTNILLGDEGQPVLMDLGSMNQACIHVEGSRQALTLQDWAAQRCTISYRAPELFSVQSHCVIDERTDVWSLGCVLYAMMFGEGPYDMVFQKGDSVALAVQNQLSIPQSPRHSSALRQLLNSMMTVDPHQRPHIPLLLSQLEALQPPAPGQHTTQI
# Assay Overview: NAK family TR-FRET binding displacement assay
# Stated Conditions: NAK family FRET screening; read-out: Binding displacement assay STK16 Ki
Recorded Metric: pKi
Please express pKi as -log10 of the molar concentration.

Quick check: pKi of Fc1ccc2c(c1Nc1ccnc3ccc(Br)cc13)OCO2 [Compound 14] ?
4.70

// same read-out, input: COc1cc(Nc2ccnc3ccc(Br)cc23)cc(OC)c1OC [Compound 1]
4.29

# iterate: Cn1c(=O)[nH]c2cc(Nc3ccnc4ccc(Br)cc34)ccc21 [Compound 42]
5.03

Next: Brc1ccc2nccc(Nc3cccc4cnoc34)c2c1 [Compound 21]
5.12

// query: O=c1[nH]c2ccc(Nc3ccnc4ccc(Br)cc34)cc2[nH]1 [Compound 39]
4.68

Moving on to the next molecule: O=S1(=O)Cc2ccc(Nc3ccnc4ccc(Br)cc34)cc2C1 [Compound 43]
5.10

Then Brc1ccc2nccc(Nc3cccc4nonc34)c2c1 [Compound 28] ?
4.96

Let us now turn to COc1cc(Nc2ccnc3ccc(C(F)(F)F)cc23)cc(OC)c1OC [Compound 13]
4.77

// next record Fc1c(F)c(F)c(Nc2ccnc3ccc(C(F)(F)F)cc23)c(F)c1F [Compound 12]
4.72

Try Brc1ccc2nccc(Nc3ccc4cn[nH]c4c3)c2c1 [Compound 35] next.
5.13

====

Field: Ki. Provide a value for each of the compounds that follow.
# Experimental System: BMP2K (Homo sapiens, UniProt Q9NSY1)
# Sequence (Q9NSY1 whole entry): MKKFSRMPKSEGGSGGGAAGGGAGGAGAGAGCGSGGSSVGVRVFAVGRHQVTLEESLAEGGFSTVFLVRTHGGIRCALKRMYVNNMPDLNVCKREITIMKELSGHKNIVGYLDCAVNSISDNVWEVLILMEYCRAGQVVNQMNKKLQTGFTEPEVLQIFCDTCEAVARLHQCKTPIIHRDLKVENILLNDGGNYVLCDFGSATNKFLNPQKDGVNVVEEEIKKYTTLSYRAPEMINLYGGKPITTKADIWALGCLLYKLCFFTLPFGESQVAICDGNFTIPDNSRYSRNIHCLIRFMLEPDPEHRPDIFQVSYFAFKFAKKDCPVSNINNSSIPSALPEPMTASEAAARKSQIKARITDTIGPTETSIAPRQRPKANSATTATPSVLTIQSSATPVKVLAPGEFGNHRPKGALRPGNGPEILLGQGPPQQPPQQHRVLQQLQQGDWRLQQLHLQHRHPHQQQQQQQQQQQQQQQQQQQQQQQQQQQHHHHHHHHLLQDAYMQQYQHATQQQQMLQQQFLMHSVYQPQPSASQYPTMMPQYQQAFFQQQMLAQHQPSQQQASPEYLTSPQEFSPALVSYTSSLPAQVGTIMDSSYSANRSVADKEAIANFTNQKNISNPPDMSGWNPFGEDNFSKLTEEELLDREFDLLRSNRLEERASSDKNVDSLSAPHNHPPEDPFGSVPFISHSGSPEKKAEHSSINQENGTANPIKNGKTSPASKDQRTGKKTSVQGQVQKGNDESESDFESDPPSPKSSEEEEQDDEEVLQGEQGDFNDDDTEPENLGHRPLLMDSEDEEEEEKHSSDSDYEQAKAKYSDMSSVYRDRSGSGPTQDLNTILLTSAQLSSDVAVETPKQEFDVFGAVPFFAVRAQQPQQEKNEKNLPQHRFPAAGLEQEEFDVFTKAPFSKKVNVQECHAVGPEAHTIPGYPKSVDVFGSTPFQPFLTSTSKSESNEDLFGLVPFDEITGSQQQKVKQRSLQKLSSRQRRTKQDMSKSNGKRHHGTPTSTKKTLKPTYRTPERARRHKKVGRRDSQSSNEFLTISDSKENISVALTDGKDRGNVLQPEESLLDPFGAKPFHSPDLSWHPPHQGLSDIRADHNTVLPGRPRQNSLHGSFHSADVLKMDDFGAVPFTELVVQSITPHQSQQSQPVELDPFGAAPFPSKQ
# Assay Overview: NAK family TR-FRET binding displacement assay

Could you share which Ki value was measured for `Cn1ncc2c(Nc3ccnc4ccc(Br)cc34)cccc21` ?
16 µM

Check `Brc1ccc2nccc(Nc3cccc4c3CCO4)c2c1` too.
> 100 µM

Please answer likewise for `Cn1c(=O)[nH]c2cc(Nc3ccnc4ccc(Br)cc34)ccc21`
6.6 µM

Next up: `Fc1ccc2c(c1Nc1ccnc3ccc(Br)cc13)OCO2`
16 µM

Then this compound: `Brc1ccc2nccc(Nc3cccc4scnc34)c2c1`
> 100 µM

Same again, this time with `O=C1NCc2ccc(Nc3ccnc4ccc(Br)cc34)cc21`
0.98 µM

====

Task for the reader: assign each of the following compounds its reported Ki.
# Experimental System: STK16 (Homo sapiens, UniProt O75716)
# Assay Overview: NAK family TR-FRET binding displacement assay
// return numeric value only (unit: µM, not printed)

// lookup Ki for Brc1ccc2nccc(Nc3cccc4ncsc34)c2c1 [Compound 24]
7.8

Try this compound too: Brc1ccc2nccc(Nc3cccc4oncc34)c2c1 [Compound 22]
15

====

# Experimental System: GAK (Homo sapiens, UniProt O14976)
# Sequence (O14976 1-1311): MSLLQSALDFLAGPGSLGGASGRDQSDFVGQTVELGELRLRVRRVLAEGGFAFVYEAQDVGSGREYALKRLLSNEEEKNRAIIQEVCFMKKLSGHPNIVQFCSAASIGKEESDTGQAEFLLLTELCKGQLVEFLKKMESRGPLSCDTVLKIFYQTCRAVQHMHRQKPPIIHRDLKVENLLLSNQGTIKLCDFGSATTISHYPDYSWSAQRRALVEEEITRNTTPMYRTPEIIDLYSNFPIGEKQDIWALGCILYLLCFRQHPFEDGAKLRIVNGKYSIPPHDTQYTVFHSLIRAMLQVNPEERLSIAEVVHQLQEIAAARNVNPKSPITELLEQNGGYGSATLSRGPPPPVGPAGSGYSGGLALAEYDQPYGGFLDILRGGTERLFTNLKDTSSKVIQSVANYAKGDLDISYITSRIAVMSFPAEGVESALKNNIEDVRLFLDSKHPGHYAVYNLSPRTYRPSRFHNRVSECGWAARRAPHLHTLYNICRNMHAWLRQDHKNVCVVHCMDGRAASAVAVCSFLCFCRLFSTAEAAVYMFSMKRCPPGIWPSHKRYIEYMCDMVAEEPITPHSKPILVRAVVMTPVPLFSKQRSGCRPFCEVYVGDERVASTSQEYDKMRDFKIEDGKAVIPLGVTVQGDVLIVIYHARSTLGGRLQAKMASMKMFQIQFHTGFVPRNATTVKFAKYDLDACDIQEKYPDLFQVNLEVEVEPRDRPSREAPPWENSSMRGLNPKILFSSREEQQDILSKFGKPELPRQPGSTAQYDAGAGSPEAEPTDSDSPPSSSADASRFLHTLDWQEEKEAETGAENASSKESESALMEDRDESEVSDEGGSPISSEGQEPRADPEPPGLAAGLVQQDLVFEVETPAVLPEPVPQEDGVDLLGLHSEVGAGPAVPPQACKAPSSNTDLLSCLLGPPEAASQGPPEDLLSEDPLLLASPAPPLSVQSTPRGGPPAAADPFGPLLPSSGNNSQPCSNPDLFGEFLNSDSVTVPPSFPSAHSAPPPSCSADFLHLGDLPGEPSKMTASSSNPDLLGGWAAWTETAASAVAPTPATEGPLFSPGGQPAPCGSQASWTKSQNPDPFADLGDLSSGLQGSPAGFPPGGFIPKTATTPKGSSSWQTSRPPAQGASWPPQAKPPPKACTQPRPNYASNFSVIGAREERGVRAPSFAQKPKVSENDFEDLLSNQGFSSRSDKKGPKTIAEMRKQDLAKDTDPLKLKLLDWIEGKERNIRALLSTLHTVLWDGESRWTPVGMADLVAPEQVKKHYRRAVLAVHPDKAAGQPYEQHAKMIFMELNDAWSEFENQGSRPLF
# Assay Overview: TR-FRET ligand-binding displacement assay
# Stated Conditions: NAK family FRET screening; read-out: Binding displacement assay GAK Ki
pKi: −log10 of the molar value.
// label = TRUE if pKi is not less than 7, otherwise FALSE

Is reported pKi greater than or equal to 7 here: Brc1ccc2nccc(Nc3cccc4ncoc34)c2c1 [Compound 23]
TRUE

Another compound to check: Brc1ccc2nccc(Nc3cccc4ncsc34)c2c1 [Compound 24]
TRUE

Repeat with COc1cc2nccc(Nc3cc(OC)c(OC)c(OC)c3)c2cc1OC [Compound 8]
TRUE

Same read-out for Cn1nnc2c(Nc3ccnc4ccc(Br)cc34)cccc21 [Compound 30] ?
FALSE

Let us now turn to Cn1ncc2c(Nc3ccnc4ccc(Br)cc34)cccc21 [Compound 31]
FALSE
